target_or_system: Neu5Ac(a2-6)Gal(b1-4)GlcNAc(b1-2)Man(a1-3)[Neu5Ac(a2-3)Gal(b1-4)GlcNAc(b1-2)Man(a1-6)]Man(b1-4)GlcNAc(b1-4)GlcNAc
procedure_summary: glycan array binding signal (z-score within array); higher = stronger binding
assay_context: glycan notation: IUPAC condensed, linker removed
The entries come from a sample that favours the strongest signals as a whole.
Quick reference: glycan array binding signal (z-score) of the listed items.
Answer using only a numeral; do not append any unit.

# count of solved cases: 3
| binder | readout_type | number |
| --- | --- | --- |
| LecB LY19 (Pseudomonas aeruginosa) (protein) MATQGVFTLPANTQFGVTAFANSAGTQTVNVQVNNETVATFTGQSTNNGIIGSKVLNSGGGGKVQILVSVNGRSSDLVSAQVILANELNFALVGSEDSTDNDYNDAVVVINWPLG | glycan array binding signal (z-score) | -0.539 |
| RBMC2 (Vibrio cholerae) (protein) KISVRSGFAIDAIGASASTLVGGTGGNLNAAVNVKDIKAIDLTWGKYYWGGYHLLALDFRMSNGSVISMGSKNYAYSKQTERFTVPAGSRIKGIKAWTAGWLLDGVQFELA | glycan array binding signal (z-score) | 3.39 |
| Loc1 (Escherichia coli) (protein) APCALTNVGEQRGTYILKPLSMKGNLTAEKIENTGNIIECTDLQETTNAIKVHFLTQNALKFKVGSRHYIINFPFEYDGKKIELPGKSSYNLEEMLSAINFTIPYSIASVSDSSNTADIFPGTPFPLLFEIEVSSCTGNNTNCNSVRFNYNLNTILQVNLMTHHHHHH | glycan array binding signal (z-score) | 0.21 |

Query: // query glycan array binding signal (z-score) value for entry AFL6 (Aspergillus fumigatus), Q4WKJ1 (protein) MSFHLTAEDIRIEDGHRLVARLRNADGDLQDASIDLNTCLGNDNGHFQWDGVDFSHSAQDVHFAIEGGGQVPVLRAQLANQDGEFQDADVNLSERIENINGEFVFH
Result: -0.35
